# assayed target: Streptavidin (Streptomyces avidinii) (UniProt P22629)
# Sequence (P22629 whole entry, looked up): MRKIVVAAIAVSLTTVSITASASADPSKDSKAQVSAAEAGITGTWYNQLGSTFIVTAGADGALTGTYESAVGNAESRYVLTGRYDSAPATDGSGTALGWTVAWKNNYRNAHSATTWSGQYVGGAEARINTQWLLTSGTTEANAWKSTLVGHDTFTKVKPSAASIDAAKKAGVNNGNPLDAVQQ
# assay info: streptavidin binders on small-molecule microarray, primary screen, artefact control for SMM compound annotation, biophysical, 635/667 nm fluorescence (AID 1147);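 further: signal reflects streptavidin binding to arrayed compounds as a control protein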
# test context: streptavidin binding, higher = more signal
Catalogue of compounds with associated composite z-score

# example entries with known answers
compound	composite z-score
COc1cc(OC)c(C(O)C2C=CC3C(=O)N(c4ccccc4)C(=O)C3N2Nc2ccccc2F)cc1Br (configuration not stated)	1.24
C=CCOC(=O)[C@@H]1[C@H]2C(=O)O[C@H](c3ccccc3)[C@H](c3ccccc3)N2[C@H](c2ccc(OCCOC(=O)[C@H]3C[C@H]4C(=O)NCC(=O)N4[C@H]3c3ccc(O)cc3)cc2)[C@@]12C(=O)Nc1ccc(I)cc12	0.868
C=C(CCCC)/C(=C/C[C@H](OC(C)=O)c1cccc(OCCO)c1)c1cc(C(=O)OC)ccc1OC	-0.77

Proceeding to the next compound to report its composite z-score.
q: Notebook: pull reported composite z-score for Streptavidin (Streptomyces avidinii) (UniProt P22629), entry `COCCOC(=O)N1C(=O)[C@@]2(c3cc(C#CCC(C(=O)OC)C(=O)OC)ccc31)[C@H](C(=O)N1CCCCCCC1)[C@H]1C(=O)O[C@H](c3ccccc3)[C@H](c3ccccc3)N1[C@@H]2c1ccccc1OCCO`
a: 2.68

The reported numbers originate from PubChem BioAssay.
